- TESTED_ON: human CD33 G88A (human, UniProt P20138 18-364)
- Sequence (P20138 18-364 G88A limits assumed): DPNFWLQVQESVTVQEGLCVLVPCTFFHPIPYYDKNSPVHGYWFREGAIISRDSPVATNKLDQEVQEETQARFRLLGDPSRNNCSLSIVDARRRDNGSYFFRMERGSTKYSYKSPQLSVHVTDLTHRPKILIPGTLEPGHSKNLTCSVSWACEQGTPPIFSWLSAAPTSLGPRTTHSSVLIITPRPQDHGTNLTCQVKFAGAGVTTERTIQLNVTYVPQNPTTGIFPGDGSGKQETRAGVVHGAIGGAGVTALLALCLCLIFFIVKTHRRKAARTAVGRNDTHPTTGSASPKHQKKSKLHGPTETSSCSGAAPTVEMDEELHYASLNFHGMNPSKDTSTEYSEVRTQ
- ASSAY_DETAILS: alanine scan, flow cytometry;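 also: HEK293-T cells transiently expressing single-residue alanine mutants of CD33 (alanine swapped to serine), antibody binding read by fluorescence in duplicate, background-subtracted, expressed relative to wild-type CD33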
Reported Mean % WT Binding values for the following binders.

BINDER: Refmab #3 (antibody, V domains shown, Full-length format is human IgG1 Fc silent (PG-LALA); The alanine scan used IgG or Fab) VH: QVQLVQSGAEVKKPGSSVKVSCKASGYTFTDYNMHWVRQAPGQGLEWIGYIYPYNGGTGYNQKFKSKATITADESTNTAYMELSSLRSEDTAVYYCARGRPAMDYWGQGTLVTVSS VL: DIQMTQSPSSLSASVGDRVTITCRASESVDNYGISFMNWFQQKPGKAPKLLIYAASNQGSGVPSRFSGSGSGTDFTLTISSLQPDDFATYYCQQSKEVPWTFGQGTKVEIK
Mean % WT Binding [% WT]: 88.3
//
BINDER: Refmab #2 (antibody, V domains shown, Full-length format is human IgG1 Fc silent (PG-LALA); The alanine scan used IgG or Fab) VH: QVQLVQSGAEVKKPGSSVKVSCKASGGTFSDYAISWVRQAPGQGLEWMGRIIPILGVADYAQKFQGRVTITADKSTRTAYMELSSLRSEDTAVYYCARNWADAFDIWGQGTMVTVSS VL: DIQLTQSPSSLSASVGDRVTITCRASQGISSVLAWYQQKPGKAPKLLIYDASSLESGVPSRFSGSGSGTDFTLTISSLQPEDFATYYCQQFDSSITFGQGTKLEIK
Mean % WT Binding [% WT]: 110
//
BINDER: Refmab #1 (antibody, V domains shown, Full-length format is human IgG1 (Absolute Antibody Ab00283-10.0); The alanine scan used IgG or Fab; also called hP67.6) VH: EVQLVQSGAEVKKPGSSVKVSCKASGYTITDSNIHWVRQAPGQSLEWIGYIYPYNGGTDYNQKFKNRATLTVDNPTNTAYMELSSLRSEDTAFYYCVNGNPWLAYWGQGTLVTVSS VL: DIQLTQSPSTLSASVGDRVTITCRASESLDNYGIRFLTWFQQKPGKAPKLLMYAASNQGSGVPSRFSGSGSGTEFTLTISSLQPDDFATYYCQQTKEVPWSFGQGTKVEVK
Mean % WT Binding [% WT]: 96.1
//
BINDER: Refmab #4 (antibody, V domains shown, Full-length format is human IgG1 Fc silent (PG-LALA); The alanine scan used IgG or Fab) VH: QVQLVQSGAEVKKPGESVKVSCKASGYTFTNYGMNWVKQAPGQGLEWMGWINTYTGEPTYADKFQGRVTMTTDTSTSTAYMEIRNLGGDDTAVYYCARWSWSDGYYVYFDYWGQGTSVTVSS VL: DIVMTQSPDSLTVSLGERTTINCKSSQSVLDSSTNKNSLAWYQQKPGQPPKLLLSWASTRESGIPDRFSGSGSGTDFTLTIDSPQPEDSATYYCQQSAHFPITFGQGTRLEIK
Mean % WT Binding [% WT]: 97.7
